Test system: LOX IMVI
Experiment: NCI tumour cell line growth inhibition, 48 h
Calls of active or inactive are those of the source. Cut-off read from the data, not from the text of the source: active = GI50 up to about 1.1 µM and inactive = higher.
A collection of compounds and their measured GI50

{"compound": "O=C1CC(c2ccccc2)[S+]([O-])c2ccccc2N1 (stereo unspecified)", "GI50": "> 100 µM (inactive)"}
{"compound": "CC(C)(C)OC(=O)NCCNC(=O)CN(CC(=O)O)C1CCCCC1N(CC(=O)O)CC(=O)O (stereo unspecified)", "GI50": "> 100 µM (inactive)"}
{"compound": "Clc1nc(-c2ccccc2)nc(Cl)c1Cl", "GI50": "2.26 µM (inactive)"}
{"compound": "NC1(C(=O)O)CCc2ccc(N(CCCl)CCCl)cc2C1 (stereo unspecified)", "GI50": "39.7 µM (inactive)"}

The recorded GI50 for entry `CCCCOC(=O)NC(Nc1cccc(C(F)(F)F)c1)(C(F)(F)F)C(F)(F)F` equals 32.1 µM (inactive)

Value of measured GI50 for the entry `N#Cc1sc2c(c1OC(=O)c1ccc(Cl)cc1Cl)c(=O)n(-c1ccccc1)c(=S)n2-c1ccccc1` : 19.2 µM (inactive)

Measured GI50 of `Cc1c(-c2ccccc2)n(C)c2cn[nH]c(=O)c12` : 18.7 µM (inactive)

Briefly, GI50 measured for `O=[As]O` : > 47.9 µM (inactive)

Form field GI50, entry `CC(=O)ON(C(C)=O)c1ccc(-c2nc3ccccc3s2)cc1C` : 37.4 µM (inactive)

GI50 reading for `COc1cc(/C=N/n2c(-c3ccccc3)nn(C(C)=O)c2=O)cc(OC)c1OC` : 2.72 µM (inactive)

The compound identified as `Cc1c(C)c2cc3c(=O)ccoc3c(C)c2oc1=O` registered its GI50 at 54 µM (inactive)

---

Tested on: SF-539
Experiment: NCI tumour cell line growth inhibition, 48 h
Calls of active or inactive are those of the source. Rule as the data show it: active = GI50 up to about 1.1 µM and inactive = higher.
quantity.measured: GI50

These solved cases illustrate the format of a correct answer.
{"compound": "CN(C)C/C=C(/c1ccc(Br)cc1)c1cccnc1", "quantity.measured": "GI50", "result.value": "> 100 µM (inactive)"}
{"compound": "C[C@]12CC[C@H](OC(=O)Cc3ccc(N(CCCl)CCCl)cc3)CC1CC[C@@H]1C2CC[C@]2(C)NC(=O)CCC12 (stereo partly drawn)", "quantity.measured": "GI50", "result.value": "3.5 µM (inactive)"}
{"compound": "COc1cc(-c2cc(=O)c3c(OC)c(OC)c(OC)c(OC)c3o2)cc(OC)c1OC", "quantity.measured": "GI50", "result.value": "> 100 µM (inactive)"}
{"compound": "O=C(CC(C(=O)c1ccsc1)c1cccs1)c1ccccc1 (stereo not drawn)", "quantity.measured": "GI50", "result.value": "> 100 µM (inactive)"}
{"compound": "Cc1nc2sccn2c1C(=O)N/N=C1\\SCC(=O)N1C", "quantity.measured": "GI50", "result.value": "> 100 µM (inactive)"}

Value of measured GI50 for the entry O=C(OC1CN2CCC1CC2)N(c1ccccc1)c1ccccc1 (stereo not drawn) : 68.4 µM (inactive)

// GI50 value for `CN(C)CCSc1nccc(-c2ccc(-c3ccnc(SCCN(C)C)n3)s2)n1` : 6.87 µM (inactive)

Lab note: measured GI50 of `C=C(Br)C[N+]12CN3CN(CN(C3)C1)C2` was > 100 µM (inactive)

Reported GI50 ( `Cc1c(/N=C\c2ccc(N(CCC#N)CCC#N)cc2)c(=O)n(-c2ccccc2)n1C` ) = 31.6 µM (inactive)

`COc1cccc(NC(=O)c2c(N)n[nH]c2SC)c1` has a reported GI50 of > 100 µM (inactive)

GI50 recorded for this compound, C/C(=N\O)C(CN1CCCCC1)C(c1ccccc1)c1c(O)c2ccccc2oc1=O (stereo not drawn) , is > 100 µM (inactive)

In plain terms, OCC1OC(n2nc(-c3ccccc3)nc2-c2cnccn2)C(O)C1O (stereo not drawn) has a documented GI50 of > 100 µM (inactive)

Field GI50 (entry `CCN(CC)CCN(C(=O)C(C)(C)C)c1ccccc1N` ) reads > 100 µM (inactive)
